Here the recorded mass density is given for each entry.
condition-info: 298.15 K; 101.33 kPa; Liquid; Pycnometric method
Give the quantity in kg/m3, number only.

Study these solved cases before continuing.
CCCC(C)[NH3+].O=C[O-] (stereo not given) [2-pentanaminium formate] ... 1163
C1CC[NH2+]C1.CCCCCCCC(=O)[O-] [pyrrolidinium octanoate] ... 949.5
O=C[O-].c1ccc2[nH+]cccc2c1 [quinolinium formate] ... 1153
C1CC[NH2+]C1.CCCCCCCCC(=O)[O-] [pyrrolidinium nonanoate] ... 931.5

Query :: Requested field: mass density. Item: C1CC[NH2+]C1.CCCCCC(=O)[O-] [pyrrolidinium hexanoate]
Result :: 988

----------
test-summary: wn = mass fraction of the nth substance listed
condition-info: 298.15 K; 101 kPa; Liquid; Alternating current cell with electrodes; w2 = 0.0476
Assign class by electrical conductivity: not lower than 0.6 S/m means Satisfied; lower than 0.6 S/m means Not satisfied.

C1CC[NH2+]C1.CCCCCC(=O)[O-] [pyrrolidinium hexanoate] + O ... Not satisfied
Cc1ccc[n+](C)c1C.O=C[O-] [1,2,3-trimethylpyridinium formate] + O ... Satisfied
C1CC[NH2+]C1.CCCCCCCCC(=O)[O-] [pyrrolidinium nonanoate] + O ... Not satisfied
C1CC[NH2+]C1.CCCCCCC(=O)[O-] [pyrrolidinium heptanoate] + O ... Not satisfied

Next molecule, please.
Query :: Determine whether measured electrical conductivity meets or exceeds 0.6 S/m for C1CC[NH2+]C1.O=[N+]([O-])[O-] [pyrrolidinium nitrate] + O
Result :: Satisfied

----------
condition-info: 298.15 K; 101.33 kPa; Liquid; Cone and plate viscometry
Assign class by viscosity: not lower than 3 mPa·s means fulfilled; lower than 3 mPa·s means not fulfilled.

Cc1cccc[n+]1C.O=C[O-] [1,2-dimethylpyridinium formate] ... not fulfilled

Next compound, please.
Query :: Determine whether measured viscosity meets or exceeds 3 mPa·s for C1CC[NH2+]C1.O=C[O-] [pyrrolidinium formate]
Result :: not fulfilled

----------
test-summary: wn = mass fraction of the nth substance listed
condition-info: 298.15 K; 101 kPa; Liquid; Alternating current cell with electrodes; w2 = 0.1667
Here the recorded electrical conductivity is given for each entry.
Give the quantity in S/m, number only.

Study these solved cases before continuing.
CC[NH+](C(C)C)C(C)C.O=C[O-] [ethyldiisopropylammonium formate] + O ... 1.39
C1CC[NH2+]C1.CCCCCCCCC(=O)[O-] [pyrrolidinium nonanoate] + O ... 0.295
O=C[O-].c1ccc2[nH+]cccc2c1 [quinolinium formate] + O ... 1.38

From here, focus on the item given below.
Query :: Requested field: electrical conductivity. Item: C1CC[NH2+]C1.CCCCCC(=O)[O-] [pyrrolidinium hexanoate] + O
Result :: 1.73

----------
test-summary: wn = mass fraction of the nth substance listed
condition-info: 298.15 K; 101 kPa; Liquid; Alternating current cell with electrodes; w2 = 0.3548
reported-endpoint: electrical conductivity (S/m)
Give the quantity in S/m, number only.

Query :: Requested field: electrical conductivity. Item: C1CC[NH2+]C1.CCCCCCC(=O)[O-] [pyrrolidinium heptanoate] + O
Result :: 2.31

Query :: Same lookup for C1CC[NH2+]C1.CCCCCCCCC(=O)[O-] [pyrrolidinium nonanoate] + O , please.
Result :: 0.915

Query :: Same lookup for O=C[O-].c1ccc2[nH+]cccc2c1 [quinolinium formate] + O , please.
Result :: 2.84

Query :: Same lookup for C1CC[NH2+]C1.CCCCCC(=O)[O-] [pyrrolidinium hexanoate] + O , please.
Result :: 2.86

Origin of measurements: the NIST ThermoML archive (doi:10.1016/j.fluid.2010.05.019)
